Biological target: human sphingosine-1-phosphate receptor 1 (S1P1) (Homo sapiens)
Experiment: Inhibition of cAMP production (HTRF cAMP HiRange), S1P1 CHO-K1 cells
Type: cell-based
Conditions: inhibition of cAMP production; potency; read-out: hS1P1 CAMP pEC50 (converted)
Sequence (P21453 whole entry): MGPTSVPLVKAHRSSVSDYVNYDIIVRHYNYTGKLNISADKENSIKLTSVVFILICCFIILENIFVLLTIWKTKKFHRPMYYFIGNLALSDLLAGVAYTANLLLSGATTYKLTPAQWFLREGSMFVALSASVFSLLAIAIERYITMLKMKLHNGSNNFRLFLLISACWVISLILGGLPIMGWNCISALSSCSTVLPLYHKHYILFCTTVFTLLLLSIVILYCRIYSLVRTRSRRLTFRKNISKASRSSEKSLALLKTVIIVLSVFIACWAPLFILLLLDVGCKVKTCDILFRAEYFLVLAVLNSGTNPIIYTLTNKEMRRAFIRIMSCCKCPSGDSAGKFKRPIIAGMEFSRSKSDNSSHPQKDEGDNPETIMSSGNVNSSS
measuredQuantity: EC50

For Cc1cc(-c2nc(-c3ccc4c(c3)nnn4C(C)C)no2)cc(C)n1 , what is its reported EC50?
< 316 nM

And CCC1(CC)CC(=O)c2cc(-c3nc(-c4ccc(O)cc4)no3)ccc2O1 ?
< 316 nM

And CCC1(CC)CC(=O)c2cc(-c3nc(-c4ccc(O)nc4)no3)ccc2O1 ?
> 316 nM

###

Provide the recorded EC50 for the entries that follow.
Biological target: UniProt P21453
Assay: β-Arrestin2 recruitment assay (PathHunter), S1P1 CHO-K1 cells
Assay type: cell-based
Details: β-arrestin2 recruitment, S1P1; read-out: hS1P1 B-arrestin2 pEC50 (converted)
Sequence (P21453 whole entry): as above
Sequence (P32121 whole entry partner): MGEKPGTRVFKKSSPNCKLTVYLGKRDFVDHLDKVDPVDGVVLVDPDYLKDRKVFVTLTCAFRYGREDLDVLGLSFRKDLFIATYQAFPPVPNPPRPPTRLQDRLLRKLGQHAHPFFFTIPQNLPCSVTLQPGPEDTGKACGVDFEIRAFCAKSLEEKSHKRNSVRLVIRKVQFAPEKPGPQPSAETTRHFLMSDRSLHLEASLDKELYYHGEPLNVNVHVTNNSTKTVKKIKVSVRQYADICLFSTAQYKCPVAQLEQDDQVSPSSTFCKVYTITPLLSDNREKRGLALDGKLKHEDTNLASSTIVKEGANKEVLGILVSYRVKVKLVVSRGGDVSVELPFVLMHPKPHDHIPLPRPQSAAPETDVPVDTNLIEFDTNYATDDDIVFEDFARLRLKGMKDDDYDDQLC

For CCC1(CC)CC(=O)c2cc(-c3nc(-c4cccs4)no3)ccc2N1 , what is its reported EC50?
< 10 µM

And Cc1ccsc1-c1nc(-c2ccc3c(c2)nnn3CC(C)(C)CO)no1 ?
< 10 µM

And Cc1ccccc1-c1nc(-c2ccc3c(c2)nnn3C(C)(C)CO)no1 ?
> 10 µM

###

Target: UniProt:P21453
Experiment: Inhibition of cAMP production (HTRF cAMP HiRange), S1P1 CHO-K1 cells
Type: cell-based
Conditions: CHO-K1; efficacy normalized to maximum efficacy of fingolimod; read-out: hS1P1 CAMP SPAN
Procedure: Stable clonal Chinese hamster ovary K1 (CHO-K1) cells co-expressing EA-β-arrestin2 and the human sphingosine-1-phosphate receptor 1 (NM_001400, S1P1) with a C-terminal Prolink™ tag were purchased from DiscoverX corporation (Cat #: 93-0207C2). […] Agonist-promoted G-protein responses were determined by measuring changes in intracellular cAMP using the HTRF® cAMP HiRange kit (CisBio, Cat #: 62AM6PEJ) based on time-resolved fluorescence resonance energy transfer (TR-FRET) technology. […]
measuredQuantity: Emax

For CN1C(=O)Cc2cc(-c3nc(-c4cccnc4)no3)ccc21 , what is its reported Emax?
< 75%

And CC(C)Nc1ccc(-c2nc(-c3ccc4c(c3)C(=O)NCC4)no2)cc1C#N ?
> 75%

And CCC1(CC)CC(=O)c2cc(-c3ncc(-c4cccnc4)cn3)ccc2O1 ?
< 75%

And Cc1ccncc1-c1noc(-c2ccc3ccsc3n2)n1 ?
< 75%

And CC(C)n1ccc2cc(-c3noc(-c4ccccc4Br)n3)ccc21 ?
> 75%

And N#Cc1cc(-c2nc(-c3ccc4c(c3)NC(=O)CC4)no2)ccc1NCC1CC1 ?
> 75%

And CCC1(CC)CC(=O)c2cc(-c3noc(-c4ccc(NC(C)C)c(C#N)c4)n3)ccc2O1 ?
> 75%

And CC(C)Cn1nnc2cc(-c3nc4c(Cl)cccc4o3)ccc21 ?
> 75%

###

Provide the recorded EC50 for the entries that follow.
Biological target: human sphingosine-1-phosphate receptor 1 (S1P1) (Homo sapiens)
Assay: β-Arrestin2 recruitment assay (PathHunter), S1P1 CHO-K1 cells
Assay type: cell-based
Conditions: β-arrestin2 recruitment, S1P1; read-out: hS1P1 B-arrestin2 pEC50 (converted)

For CC(C)n1ccc2nc(-c3nc(-c4ccccc4Br)cs3)ccc21 , what is its reported EC50?
> 10 µM

And Cc1nc2cc(-c3nnc(-c4ccc(NCC(F)F)c(C#N)c4)o3)ccc2[nH]1 ?
< 10 µM

And CC(C)n1nnc2cc(-c3noc(-c4ncccc4O)n3)ccc21 ?
> 10 µM

And O=C1c2cc(-c3nc(-c4cccnc4)no3)ccc2OC(CO)(CO)C1Br (stereo not drawn) ?
> 10 µM

And CCC1(CC)CC(=O)c2cc(-c3nc(-c4ccc(C(F)(F)F)nc4)no3)ccc2O1 ?
> 10 µM

And N#Cc1cc(-c2nnc(-c3ccc4c(c3)CCC(=O)N4)o2)ccc1NCC(F)F ?
< 10 µM

And CCC1(CC)CC(=O)c2cc(-c3nc(-c4cccnc4C)no3)ccc2O1 ?
< 10 µM

And CCC1(CC)CC(=O)c2cc(-c3nc(-c4cncc(S(N)(=O)=O)c4)no3)ccc2O1 ?
< 10 µM

And CCC1(CC)CC(=O)c2cc(-c3nc(-c4ccc[nH]4)no3)ccc2O1 ?
> 10 µM

And N#Cc1cc(-c2nc(-c3ccc4c(c3)NC(=O)CC4)no2)ccc1NCC1CC1 ?
< 10 µM

And COc1ccccc1-c1cnc(-c2ccc3c(c2)nnn3C(C)C)nc1 ?
< 10 µM

And Cc1occc1-c1noc(-c2ccc3c(c2)nnn3C(C)C)n1 ?
< 10 µM

And CC(C)(CO)Cn1nnc2cc(-c3noc(-c4ccncc4C(F)(F)F)n3)ccc21 ?
> 10 µM

And CN1C(=O)Cc2cc(-c3nc(-c4cccnc4)no3)ccc21 ?
> 10 µM

And CC(C)Nc1ccc(-c2nnc(-c3ccc4c(c3)C(=O)NCC4)o2)cc1C#N ?
> 10 µM

And O=C1CNc2ccc(-c3nc(-c4cccnc4)no3)cc2N1 ?
> 10 µM

And CCC1(CC)CC(=O)c2cc(-c3noc(-c4ccc(NC(C)C)c(C#N)c4)n3)ccc2O1 ?
< 10 µM

And Cc1ccc2nc(-c3ccc4c(c3)nnn4CC(C)C)oc2c1 ?
> 10 µM

###

Provide the recorded EC50 for the entries that follow.
Target: human sphingosine-1-phosphate receptor 1 (S1P1) (Homo sapiens, UniProt P21453)
Test: Inhibition of cAMP production (HTRF cAMP HiRange), S1P1 CHO-K1 cells
Type: cell-based
Settings: inhibition of cAMP production; potency; read-out: hS1P1 CAMP pEC50 (converted)

For COc1ccccc1-c1nc(-c2ccc3c(c2)nnn3C(C)C)ns1 , what is its reported EC50?
< 316 nM

And CCC1(CC)CC(=O)c2cc(-c3nc(-c4ccc(S(=O)(=O)N(C)C)cc4)no3)ccc2O1 ?
> 316 nM

And Cc1ccsc1-c1noc(-c2ccc3c(c2)nnn3CC2CC2)n1 ?
> 316 nM

And COc1ccccc1-c1noc(-c2ccc3c(cnn3C(C)C)c2)n1 ?
< 316 nM

And CCC1(CC)CC(=O)c2cc(-c3nc(-c4ccnc(C(F)(F)F)c4)no3)ccc2O1 ?
> 316 nM

And COc1cc(C)c(-c2noc(-c3ccc4c(c3)nnn4C(C)C)n2)c(OC)c1 ?
> 316 nM

And COc1cccc(OC)c1-c1noc(-c2ccc3c(ccn3C(C)C)c2)n1 ?
> 316 nM

And Cc1ncccc1-c1nc(-c2ccc3c(c2)nnn3C(C)C)no1 ?
> 316 nM

And COc1cccc(OC)c1-c1noc(-c2ccc3c(c2)nnn3C(C)C)n1 ?
> 316 nM

And CC(C)n1nnc2cc(-c3nc(-c4cccc5c4OCCC5)no3)ccc21 ?
< 316 nM

And Brc1ccccc1-c1noc(-c2ccc3c(c2)nnn3C2CC2)n1 ?
< 316 nM

And C=CCn1nnc2cc(-c3nc(-c4ccccc4)no3)ccc21 ?
> 316 nM

And COc1cccc(-c2nc(-c3ccc4c(c3)nnn4C3CCCC3)no2)c1 ?
> 316 nM

And CCCn1nnc2cc(-c3nc(-c4ccncc4)no3)ccc21 ?
> 316 nM

And CC(C)n1nnc2cc(-c3noc(-c4ccc(C5CCCCC5)cc4)n3)ccc21 ?
> 316 nM

And CC(=O)Nc1ccc(-c2noc(-c3ccc(NC(C)C)c(C#N)c3)n2)cc1 ?
< 316 nM

And COC(=O)NS(=O)(=O)n1c(=O)oc2cc(-c3nnc(-c4ccccc4OC)o3)ccc21 ?
> 316 nM

And O=C1CC2(CCOCC2)Oc2ccc(-c3nc(-c4cccnc4)no3)cc21 ?
> 316 nM

And CCC1(CC)CC(=O)c2cc(-c3nc(-c4ccccc4OC)no3)ccc2O1 ?
< 316 nM

And CCC1(CC)CC(=O)c2cc(-c3nc(-c4cccnc4OC)no3)ccc2O1 ?
< 316 nM

And COc1ccccc1-c1noc(-c2ccc3c(c2)nnn3C(C)C)n1 ?
< 316 nM

And CC(C)n1nnc2cc(-c3nc(-c4ccccc4)co3)ccc21 ?
> 316 nM

And Brc1ccccc1-c1noc(-c2ccc3c(c2)nnn3C2CCOCC2)n1 ?
> 316 nM

###

Molecular target: human sphingosine-1-phosphate receptor 1 (S1P1) (Homo sapiens, UniProt P21453)
Assay: Inhibition of cAMP production (HTRF cAMP HiRange), S1P1 CHO-K1 cells
Format: cell-based
Details: inhibition of cAMP production; potency; read-out: hS1P1 CAMP pEC50 (converted)
Provide the recorded EC50 for the entries that follow.

For CCC1(CC)CC(=O)c2cc(-c3nc(-c4cncc(O)c4)no3)ccc2O1 , what is its reported EC50?
< 316 nM

And Cc1cnccc1-c1nc(-c2ccc3c(c2)nnn3C(C)C)no1 ?
> 316 nM

And CC(C)Oc1ccc(-c2nc(-c3ccc4c(c3)nnn4C(C)C)no2)cc1C(F)(F)F ?
< 316 nM

And O=C(O)CCn1nnc2cc(-c3noc(-c4ccccc4Br)n3)ccc21 ?
> 316 nM

And CC(C)n1nnc2cc(-c3ncc(-c4ccc(F)cc4)s3)ccc21 ?
> 316 nM

From: patent US20230114241A1
